Tested on: S. aureus, FDA 209P
Assay: antibacterial activity (MIC), standard method of the Japan Society of Chemotherapy
Type: cell-based
assay readout: MIC

compound: Nc1c(F)c(N2CCC(C(N)C3CC3)C2)c(F)c2c1c(=O)c(C(=O)O)cn2C1CC1F (stereo not shown)
test value: ≦0.003 μg/ml
//
compound: Cc1c(N2CCC(C(N)C3CC3)C2)c(F)c(N)c2c(=O)c(C(=O)O)cn(C3CC3F)c12 (stereo not shown)
test value: ≦0.003 μg/ml
//
compound: COc1c(N2CCC(C(N)C3CC3)C2)ccc2c(=O)c(C(=O)O)cn(C3CC3)c12 (stereo not shown)
test value: 6 ng/mL
//
compound: COc1c(N2CCC(C(N)C3CC3)C2)c(F)cc2c(=O)c(C(=O)O)cn(C3CC3F)c12 (stereo not shown)
test value: ≦0.003 μg/ml

###

Quick reference: MIC of the listed items.
Test system: PS. aeruginosa, 32121
Test: antibacterial activity (MIC), standard method of the Japan Society of Chemotherapy
Type: cell-based

compound: COc1c(N2CCC(C(N)C3CC3)C2)c(F)cc2c(=O)c(C(=O)O)cn(C3CC3F)c12 (stereo not shown)
system: PS. aeruginosa, 32121
MIC / µg/mL: 0.05

compound: Nc1c(F)c(N2CCC(C(N)C3CC3)C2)c(F)c2c1c(=O)c(C(=O)O)cn2C1CC1F (stereo not shown)
system: PS. aeruginosa, 32121
MIC / µg/mL: 0.025

compound: Cc1c(N2CCC(C(N)C3CC3)C2)c(F)c(N)c2c(=O)c(C(=O)O)cn(C3CC3F)c12 (stereo not shown)
system: PS. aeruginosa, 32121
MIC / µg/mL: 0.025

compound: COc1c(N2CCC(C(N)C3CC3)C2)ccc2c(=O)c(C(=O)O)cn(C3CC3)c12 (stereo not shown)
system: PS. aeruginosa, 32121
MIC / µg/mL: 0.2

###

System: S. aureus, 870307
Test: antibacterial activity (MIC), standard method of the Japan Society of Chemotherapy
Assay type: cell-based
Quick reference: MIC of the listed items.
assay readout: MIC (µg/mL)

molecule: Nc1c(F)c(N2CCC(C(N)C3CC3)C2)c(F)c2c1c(=O)c(C(=O)O)cn2C1CC1F (stereo not shown)
system: S. aureus, 870307
units of measure: µg/mL
test value: 0.025

molecule: COc1c(N2CCC(C(N)C3CC3)C2)ccc2c(=O)c(C(=O)O)cn(C3CC3)c12 (stereo not shown)
system: S. aureus, 870307
units of measure: µg/mL
test value: 0.2

molecule: Cc1c(N2CCC(C(N)C3CC3)C2)c(F)c(N)c2c(=O)c(C(=O)O)cn(C3CC3F)c12 (stereo not shown)
system: S. aureus, 870307
units of measure: µg/mL
test value: 0.025

molecule: COc1c(N2CCC(C(N)C3CC3)C2)c(F)cc2c(=O)c(C(=O)O)cn(C3CC3F)c12 (stereo not shown)
system: S. aureus, 870307
units of measure: µg/mL
test value: 0.1

###

System: Ps. aeruginosa, 32104
Assay: antibacterial activity (MIC), standard method of the Japan Society of Chemotherapy
Type: cell-based
compounds and their reported MIC

compound: Cc1c(N2CCC(C(N)C3CC3)C2)c(F)c(N)c2c(=O)c(C(=O)O)cn(C3CC3F)c12 (stereo not shown)
MIC / µg/mL: 0.05
--
compound: COc1c(N2CCC(C(N)C3CC3)C2)ccc2c(=O)c(C(=O)O)cn(C3CC3)c12 (stereo not shown)
MIC / µg/mL: 0.39
--
compound: COc1c(N2CCC(C(N)C3CC3)C2)c(F)cc2c(=O)c(C(=O)O)cn(C3CC3F)c12 (stereo not shown)
MIC / µg/mL: 0.1
--
compound: Nc1c(F)c(N2CCC(C(N)C3CC3)C2)c(F)c2c1c(=O)c(C(=O)O)cn2C1CC1F (stereo not shown)
MIC / µg/mL: 0.05
